- Test system: MS2 coat protein
- ASSAY NOTES: apparent KD of MS2 coat protein; higher = weaker reporter binding
- TEST CONDITIONS: Eterna round: R107; input ligand: arginine 13.2 mM
ASSAY ENDPOINT: apparent KD of MS2 coat protein (nM)
Just the number in nM, nothing appended.

RESIDUE SEQUENCE: GUCUUGGAAUCGGCCGCCACUACAUGAGGAUCACCCAUGUGGACAAAUAGGGUUUUUAAGCUCGGUAGGACCGGGAUUCGGACAU [Mamaon]
UNIT TAG: nM
apparent KD of MS2 coat protein: 12.3
//
RESIDUE SEQUENCE: ACGUAUGUCAGAAGGAGCGUCAAUAACAUGAGGAUCACCCAUGUAUUACAUAGGUAUAAUAGACAGGUAGGUCGCUGAAUUCGAA [JR_SSArginiB_Sub022]
UNIT TAG: nM
apparent KD of MS2 coat protein: 22.4

Q: Supply recorded apparent KD of MS2 coat protein for CGCGCGACAUGAGGAUCACCCAUGUUCCCUCGAGGACCGGUACGGCCGCCACUCGAGGACAUGAGCAUCAGCCAUGUACCGGUCA [Default title] here.
A: 28.8

Q: Supply recorded apparent KD of MS2 coat protein for CAAAGUUCGUCUCUGGUCCUCUAAUCGGCUCGAGGACCGGUACGGCCGCCACUCGCCCGACAUGAGGAUCACCCAUGUCUGUAAA [Dilaanis] here.
A: 15.5

Q: Supply recorded apparent KD of MS2 coat protein for GGACCAGGGAGCGAUACCAGCUUGAGUGUGCUGGCCAGGCACAUGAGGAUCACCCAUGUAAGCCCUUGGCAGCGCUCCCUGGUCC [#1 Exclusion - Theophylline B Attempt #27 (HarryS)] here.
A: 6.87
